biological target: human SCD5 (Homo sapiens, UniProt Q86SK9); construct: expressed in transfected cells; host or cells: yeast strain with OLE1 deleted, plasmid-borne human SCD5 (selected in SD-Ura); test: Growth inhibition of yeast strain expressing human SCD5 as sole desaturase (OLE1 deleted), OD600 readout; type: cell-based; settings: yeast strain expressing human SCD5 as sole desaturase; growth (OD600) after 40 h at 30° C.; read-out: SCD5 IC50
Sequence (Q86SK9 whole entry): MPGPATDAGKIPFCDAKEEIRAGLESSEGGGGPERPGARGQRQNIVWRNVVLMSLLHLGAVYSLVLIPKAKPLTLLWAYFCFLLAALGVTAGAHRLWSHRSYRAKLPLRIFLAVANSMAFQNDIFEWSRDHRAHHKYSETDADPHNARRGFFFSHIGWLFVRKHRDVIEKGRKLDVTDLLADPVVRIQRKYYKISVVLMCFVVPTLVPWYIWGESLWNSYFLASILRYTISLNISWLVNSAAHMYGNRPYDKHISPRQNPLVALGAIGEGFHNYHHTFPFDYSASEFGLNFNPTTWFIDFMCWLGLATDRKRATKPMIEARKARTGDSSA
RECORDED METRIC: IC50

Worked set:
In [3]: df
Out[3]:
                                   molecule  recorded_metric  meas_value
0  O=C(Nc1ccc(Cc2cccc(F)c2)cn1)c1ccc(F)c(Cl)n1             IC50     > 45 µM
1  CN1CC(C(=O)Nc2ncc(Cc3cccc(F)c3)s2)CC1=O (centres unmarked)             IC50     > 45 µM
2  Cc1ccc(Cc2ccc(NC(=O)C3=NN(C)C(=O)CC3)nc2)cn1             IC50     > 45 µM
3  COC(=O)c1ccc(C(=O)Nc2ccc(Cc3cccc(Cl)c3)cn2)nn1             IC50     > 45 µM

Moving on to the next molecule.
Prompt: // map "CO[C@H]1C[C@@H](C(=O)Nc2ccc(Cc3cccc(F)c3)cn2)N(C)C1" to recorded IC50 (system: human SCD5 (Homo sapiens, UniProt Q86SK9))
Completion: > 45 µM

---

molecular target: human SCD1 (Homo sapiens); construct: expressed in transfected cells; host or cells: yeast strain with OLE1 deleted, plasmid-borne human SCD1 (selected in SD-Ura); assay: Growth inhibition of yeast strain expressing human SCD1 as sole desaturase (OLE1 deleted), OD600 readout; type: cell-based; conditions: yeast strain expressing human SCD1 as sole desaturase; growth (OD600) after 40 h at 30° C.; read-out: SCD1 IC50
Sequence (O00767 whole entry): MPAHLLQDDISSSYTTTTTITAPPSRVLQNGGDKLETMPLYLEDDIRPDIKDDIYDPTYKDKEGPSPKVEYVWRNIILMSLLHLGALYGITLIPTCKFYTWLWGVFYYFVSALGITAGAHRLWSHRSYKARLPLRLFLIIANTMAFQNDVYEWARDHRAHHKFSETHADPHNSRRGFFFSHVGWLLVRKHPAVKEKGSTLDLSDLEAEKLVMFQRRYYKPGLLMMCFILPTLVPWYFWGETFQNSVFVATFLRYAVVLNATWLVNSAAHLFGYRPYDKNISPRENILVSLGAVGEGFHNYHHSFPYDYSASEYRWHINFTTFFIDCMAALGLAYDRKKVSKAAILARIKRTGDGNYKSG
RECORDED METRIC: IC50

>>> print(df.to_string())
                                   compound  meas_value
0  CCCn1nc(C(=O)Nc2ccc(Cc3cccc(Cl)c3)nn2)ccc1=O [Compound 257]     > 45 µM
1  O=C(Nc1ccc(Cc2cccc(F)c2)cn1)c1cc(Br)sn1 [Compound 334]     > 45 µM
2  COC(C)(c1cccc(F)c1)c1cnc(NC(=O)C2=NN(C)C(=O)CC2)s1 (centres unmarked) [Compound 424]     > 45 µM
3  Cn1nc(C(=O)Nc2ccc(Cc3cc(C#N)ccc3F)cn2)ccc1=O [Compound 641]     > 45 µM
4  CN1N=C(C(=O)Nc2ncc(Cc3ccc4ccccc4n3)s2)CCC1=O [Compound 390]     > 45 µM
5  O=C(Nc1ccc(Cc2cccc(F)c2)cn1)c1ccc(=O)n(C2COC2)c1 [Compound 272]     > 45 µM

Dear colleague, could you please provide IC50 for the compounds listed below?
1. O=C(Nc1ccc(CC2CCCCC2)cn1)c1ccc(CO)cn1 [Compound 321]
2. CN1N=C(C(=O)Nc2ccc(Cc3cccc(C(F)F)c3)cn2)CCC1=O [Example 32]
3. Cn1nc(C(=O)Nc2ccc(Cc3cccc(F)c3)cn2)cc1CO [Compound 560]
4. Cn1nc(C(=O)N2CCC(Oc3cccc(Cl)c3)CC2)ccc1=O [Compound 432]
5. CNC(=O)c1ccnc(NC(=O)c2ccc(Oc3ccccc3Cl)cn2)c1 [Compound 678]

Completion:
0.01 µM
26.4 µM
0.25 µM
> 45 µM
0.32 µM

Batch request: IC50 for each of the following compounds.
1. Cn1nc(C(=O)Nc2ccc(Cc3cccc(Cl)c3)nn2)ccc1=O [Compound 196]
2. Cn1c(C(=O)Nc2ccc(Cc3cccc(F)c3)cn2)cc(=O)n1C [Compound 459]
3. Cn1cc(C(=O)Nc2ccc(C3CC3c3ccccc3)cn2)ccc1=O (centres unmarked) [Compound 298]
4. N#Cc1ccc(C(=O)Nc2ccc(Cc3ccc(F)c(C#N)c3)cn2)nc1 [Compound 534]
5. CN1N=C(C(=O)Nc2ncc(Cc3ccccc3F)s2)CCC1=O [Compound 206]

Completion:
1. 5.58 µM
2. > 45 µM
3. 2.75 µM
4. 6 µM
5. 3.36 µM

Prompt: // IC50 lookup, key: Cn1nc(C(=O)Nc2ccc(Cc3ccc(F)c(Cl)c3)cn2)cc1O [Compound 323]
Completion: 10.7 µM

Origin of values: patent US20230078764A1
